Molecular target: Recombinant human aldo-keto reductase family 1 member C2 (AKR1C2) protein (Homo sapiens)
Construct: made in house; host or cells: Sf-9 insect cells (baculovirus)
Sequence (P52895 1-323): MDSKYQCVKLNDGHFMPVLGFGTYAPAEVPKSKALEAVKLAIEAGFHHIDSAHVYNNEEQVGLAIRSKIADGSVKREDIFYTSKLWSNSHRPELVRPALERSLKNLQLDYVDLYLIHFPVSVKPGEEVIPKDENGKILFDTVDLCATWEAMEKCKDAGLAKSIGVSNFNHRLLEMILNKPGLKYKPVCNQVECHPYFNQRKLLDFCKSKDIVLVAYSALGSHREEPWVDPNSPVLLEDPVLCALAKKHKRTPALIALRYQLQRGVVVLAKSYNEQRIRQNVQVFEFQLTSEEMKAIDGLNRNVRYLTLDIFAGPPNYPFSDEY
Assay: Inhibition of the aldo-keto reductase family 1 member C2, 3H-dihydrotestosterone conversion
Type: biochemical
Conditions: inhibitor at 10 μM
quantityKind: inhibition at 10 µM (%)

>>> observed("CC(O)C1CCN(C(=O)N2CCC(=C(C#N)c3ccc(F)cc3)CC2)CC1 (centres unmarked) [Compound 21]")
9
>>> observed("N#CC(=C1CCN(C(=O)N2CCc3sccc3C2)CC1)c1cc(F)cc(F)c1 [Compound 51]")
18
>>> observed("N#CC(=C1CCN(C(=O)N2CCCC(O)CC2)CC1)c1ccc(F)cc1 (centres unmarked) [Compound 107]")
14

a: Cn1ncc2cccc(C(C#N)=C3CCN(C(=O)N4CCC(CO)CC4)CC3)c21 [Compound 118]
b: N#CC(=C1CCN(C(=O)N2CCC(CO)CC2)CC1)c1ccc(Cl)s1 [Compound 63]
# input Select one: a or b . Criterion: greater recorded inhibition at 10 µM. Output the label that corresponds to your choice.
# output b
(b: 29%, a: 14%)
